Test: Metabolic stability in rat liver microsomes assessed as intrinsic clearance
Type: ADME, Microsome
Conditions: read-out: CLH
Recorded microsomal CLint, one value per entry.
Field note: include the unit after the figure.

Before answering, review these 5 worked examples.
// query For Cc1nnn(Cc2cc(Cl)ccc2/C=C/C(=O)N2CCC(Cc3nnc(C)o3)CC2)n1 , what is its reported microsomal CLint?
// result 89 µL/min/mg

// query Proceed to Cc1nnn(Cc2cc(Cl)ccc2/C=C/C(=O)N2CCNC[C@H]2C)n1
// result 84 µL/min/mg

// query Another molecule: Cc1nnn(Cc2cc(C(F)(F)F)ccc2/C=C/C(=O)N2CCC(C(F)(F)F)CC2)n1
// result 41 µL/min/mg

// query Again, but for Cc1nnn(Cc2cc(Cl)ccc2/C=C/C(=O)N2CCN(Cc3ccc(F)cc3)C[C@H]2C)n1
// result 510 µL/min/mg

// query Now consider Cc1cc(CN2CCN(C(=O)/C=C/c3ccc(Cl)cc3Cn3nnc(C)n3)CC2=O)on1 and answer again.
// result 87 µL/min/mg

Let's switch to this molecule now.
// query Data request, read-out microsomal CLint, for Cc1noc(Cc2cc(Cl)ccc2/C=C/C(=O)N2CCN(Cc3ccc(F)cc3)C[C@H]2C)n1
// result 580 µL/min/mg

====

# Fa listing for each entry below
Experiment: Passive Permeability of the compound across artificial membrane assessed as fraction absorbed by PAMPA assay
The answer is to be given in %; state only the numeric part.

// query For Cc1nnn(Cc2cc(C(F)(F)F)ccc2/C=C/C(=O)N2CCC(C#N)CC2)n1 , what is its reported Fa?
// result 27

---
// query Can you look up the measured Fa of Cc1nnn(Cc2cc(C(F)(F)F)ccc2/C=C/C(=O)N2CCC(Cl)CC2)n1 for me?
// result 89

====

Experiment: Equilibrium solubility of compound at pH 6.8
Type: physicochemical
Conditions: buffer
property.label: solubility thermodynamic

// query Quick one: solubility thermodynamic of Cc1nnn(Cc2cc(Cl)ccc2/C=C/C(=O)N2CCN(Cc3coc(C)n3)CC2)n1 ?
// result > 1000 µM

====

Assay: Metabolic stability in rat liver microsomes assessed as intrinsic clearance
Type: ADME, Microsome
Conditions: read-out: CLH
property.label: microsomal CLint (µL/min/mg)
I only need the number, in µL/min/mg, no unit after it.

// query Look up microsomal CLint for this compound: Cc1nnn(Cc2cc(Cl)ccc2/C=C/C(=O)N2CCN(C(=O)c3ccc(F)cc3)CC2)n1
// result 71

// query Entry COc1ccc(CN2CCN(C(=O)/C=C/c3ccc(Cl)cc3Cn3nnc(C)n3)CC2)nc1 please
// result 190

--- query ---
// query Reported microsomal CLint for Cc1nnn(Cc2cc(Cl)ccc2/C=C/C(=O)N2CCC(Cc3ncc(C)o3)CC2)n1 : what is it?
// result 570
